- Tested on: CCRF-CEM
- procedure_details: NCI tumour cell line growth inhibition, 48 h
Active and inactive are the calls of the source. Cut-off read from the data, not from the text of the source: active = GI50 up to about 1.1 µM and inactive = higher.
Could you please pick one outcome from this set? active, inactive

Sample answers from the record:
CC1(c2ccccc2)N=c2[nH]cnc2=C(C(N)=O)N1 (stereo not given) :: inactive
Cc1ccc([N+](=O)[O-])cc1S(=O)(=O)Nc1ccc(C2=NN(c3ccc([N+](=O)[O-])cc3[N+](=O)[O-])C(c3ccccc3O)C2)cc1 (stereo not given) :: inactive
O=C1CCC(=O)C1=NNc1cc(Cl)cc(Cl)c1 :: inactive
COc1cc(O)c2c(=O)cc(-c3ccc(O)cc3O)oc2c1CC=C(C)C :: inactive
O=C(Cc1c(C(=O)Nc2ccccc2)sc(C(=O)Nc2ccccc2)c1CC(=O)Nc1ccccc1)Nc1ccccc1 :: inactive
C[n+]1c2ccccc2n2c3ccccc3c(NCCc3ccccn3)c(C#N)c21 :: inactive
CN(C)CCCNc1ccc([N+](=O)[O-])c2nc3ccccc3c(N)c12 :: active
CCOC(=O)C(Cc1ccccc1)NC(=O)c1ccc(/N=N/N(C)C)cc1 (stereo not given) :: inactive

Which outcome was entered for the compound CCCCCC(=O)CCCCCCCC(O)CC(=O)OCC (stereo not given) in this test? inactive

Also need NC(=O)c1csc(C2CCC(CO)O2)n1 (stereo not given) , thanks. inactive

Cited source: ChEMBL document CHEMBL1201862
